Biological target: c-Met (Homo sapiens)
Construct: Kinases are expressed as either kinase domains or full length constructs; made in house
Sequence (P08581 25-1390): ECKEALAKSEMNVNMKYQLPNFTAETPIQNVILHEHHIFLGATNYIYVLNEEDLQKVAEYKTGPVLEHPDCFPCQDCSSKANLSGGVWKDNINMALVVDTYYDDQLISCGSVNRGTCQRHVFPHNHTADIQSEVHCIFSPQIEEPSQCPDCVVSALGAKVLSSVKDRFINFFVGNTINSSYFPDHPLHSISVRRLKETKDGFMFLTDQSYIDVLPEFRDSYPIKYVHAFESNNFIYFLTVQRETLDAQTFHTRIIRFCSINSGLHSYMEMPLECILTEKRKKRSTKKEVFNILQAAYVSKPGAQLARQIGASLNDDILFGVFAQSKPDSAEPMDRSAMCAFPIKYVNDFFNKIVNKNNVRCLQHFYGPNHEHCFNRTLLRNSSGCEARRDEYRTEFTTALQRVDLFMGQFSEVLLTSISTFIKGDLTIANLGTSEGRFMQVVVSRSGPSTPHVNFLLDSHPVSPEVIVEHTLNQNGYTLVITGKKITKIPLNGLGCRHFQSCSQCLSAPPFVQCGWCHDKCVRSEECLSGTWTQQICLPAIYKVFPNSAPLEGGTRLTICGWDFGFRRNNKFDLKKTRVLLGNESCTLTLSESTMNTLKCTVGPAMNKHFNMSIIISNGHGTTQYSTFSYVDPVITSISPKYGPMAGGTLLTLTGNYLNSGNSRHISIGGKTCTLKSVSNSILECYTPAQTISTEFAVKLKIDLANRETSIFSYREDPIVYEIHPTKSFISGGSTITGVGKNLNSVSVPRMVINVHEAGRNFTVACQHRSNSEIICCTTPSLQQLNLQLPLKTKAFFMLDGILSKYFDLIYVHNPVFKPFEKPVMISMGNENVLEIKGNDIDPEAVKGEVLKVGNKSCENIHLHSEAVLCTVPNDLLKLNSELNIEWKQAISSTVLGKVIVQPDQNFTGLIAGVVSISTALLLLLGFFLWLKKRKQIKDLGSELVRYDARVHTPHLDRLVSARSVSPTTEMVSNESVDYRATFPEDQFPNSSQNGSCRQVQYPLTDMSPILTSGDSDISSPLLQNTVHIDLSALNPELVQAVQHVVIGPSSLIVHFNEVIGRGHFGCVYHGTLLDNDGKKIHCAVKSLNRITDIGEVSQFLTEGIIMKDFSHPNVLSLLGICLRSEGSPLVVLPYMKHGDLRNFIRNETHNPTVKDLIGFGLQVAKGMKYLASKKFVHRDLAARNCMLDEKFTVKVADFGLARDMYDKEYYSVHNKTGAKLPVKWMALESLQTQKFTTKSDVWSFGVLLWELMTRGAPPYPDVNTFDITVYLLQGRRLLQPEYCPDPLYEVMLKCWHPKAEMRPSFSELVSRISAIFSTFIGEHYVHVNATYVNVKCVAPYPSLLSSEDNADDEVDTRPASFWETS
Test: Kinase inhibition assay (33P transfer), c-Met
Format: biochemical
Details: Table 2, kinase inhibition class; read-out: Met-1
assay_readout: IC50

These recorded examples may help you get a feel for the data.
Data request: // query IC50 value for entry "COc1cc(Nc2ncnc(-n3ccc4c(OC)cccc43)n2)cc(OC)c1OC"
Data returned: > 11 µM

Data request: Same read-out for "COC(=O)Cc1cccc(Nc2ncnc(-n3c(NCc4ccccn4)nc4ccccc43)n2)c1" ?
Data returned: > 9.65 µM

Data request: Same read-out for "O=C(O)Cc1cccc(Nc2ncnc(-n3c(NCc4ccccn4)nc4ccccc43)n2)c1" ?
Data returned: > 9.95 µM

Data request: Same read-out for COc1cc(Nc2ncnc(-n3c(NC4c5ccccc5CC4O)nc4ccccc43)n2)cc(OC)c1OC (centres unmarked) ?
Data returned: > 8.56 µM

Data request: Same read-out for "CCc1ccc(Nc2nc3ccccc3n2-c2ncnc(Nc3cc(OC)c(OC)c(OC)c3)n2)cc1" ?
Data returned: > 9.04 µM

Data request: Same read-out for "COC(=O)c1cccc(Nc2nc3ccccc3n2-c2ncnc(Nc3cc(OC)c(OC)c(OC)c3)n2)c1" ?
Data returned: > 8.53 µM

Data request: Same read-out for "CNc1nc2ccccc2n1-c1ncnc(Nc2cc(OC)c(OC)c(OC)c2)n1" ?
Data returned: > 11 µM

Data request: Same read-out for "COc1cc(Nc2ncnc(Nc3ccc4c(c3)OCO4)n2)cc(OC)c1OC" ?
Data returned: > 11.3 µM

Data request: Same read-out for "COc1cc(Nc2ncnc(Nc3ccc(NC(=O)OC(C)(C)C)cc3)n2)cc(OC)c1OC" ?
Data returned: > 9.6 µM

Data request: Same read-out for "Nc1ncnc(Nc2cccc(Cl)c2)n1" ?
Data returned: > 20.3 µM

Others:
Data request: // query IC50 value for entry "COc1cc(Nc2ncnc(Nc3cc(C)nn3C)n2)cc(OC)c1OC"
Data returned: > 12.1 µM

Data request: Same read-out for "COc1cc(Nc2ncnc(-n3c(Nc4ccc(N(C)C)cc4)nc4ccccc43)n2)cc(OC)c1OC" ?
Data returned: > 8.78 µM

Data request: Same read-out for "Nc1nc2ccccc2n1-c1ncnc(Nc2ccc(S(N)(=O)=O)cc2)n1" ?
Data returned: 1.05 to 6.28 µM

* * *

Target: Itk (Homo sapiens, UniProt Q08881)
Construct: Kinases are expressed as either kinase domains or full length constructs; made in house
Sequence (Q08881 whole entry, species assumed, the tested form may be a part): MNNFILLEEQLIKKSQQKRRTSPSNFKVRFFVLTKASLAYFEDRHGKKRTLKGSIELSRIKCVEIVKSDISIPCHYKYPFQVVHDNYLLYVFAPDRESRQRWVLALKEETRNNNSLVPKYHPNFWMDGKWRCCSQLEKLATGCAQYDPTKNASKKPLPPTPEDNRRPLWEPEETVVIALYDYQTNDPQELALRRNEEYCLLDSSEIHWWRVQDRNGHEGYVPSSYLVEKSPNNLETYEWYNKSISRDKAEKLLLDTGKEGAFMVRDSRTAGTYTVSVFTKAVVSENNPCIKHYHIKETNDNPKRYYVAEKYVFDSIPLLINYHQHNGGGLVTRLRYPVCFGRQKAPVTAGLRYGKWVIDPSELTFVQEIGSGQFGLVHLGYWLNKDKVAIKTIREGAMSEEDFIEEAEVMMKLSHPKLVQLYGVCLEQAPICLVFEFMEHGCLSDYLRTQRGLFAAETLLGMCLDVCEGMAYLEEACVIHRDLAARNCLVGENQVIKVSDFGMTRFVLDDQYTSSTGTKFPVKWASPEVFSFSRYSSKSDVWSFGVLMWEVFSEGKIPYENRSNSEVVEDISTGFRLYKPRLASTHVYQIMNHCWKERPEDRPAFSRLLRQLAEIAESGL
Experiment: Kinase inhibition assay (33P transfer), Itk
Assay type: biochemical
Details: Table 3; read-out: Itk-1
Property: IC50; scope: individual compounds

These recorded examples may help you get a feel for the data.
Data request: Find IC50 (Itk (Homo sapiens, UniProt Q08881)) for the entry "COc1ccc2c(c1)c(CCN(C)C)cn2-c1ncnc(Nc2cc(OC)c(OC)c(OC)c2)n1"
Data returned: > 9.4 µM

Data request: Same read-out for "COc1ccc(Nc2ncnc(-c3ccccc3)n2)cc1" ?
Data returned: > 16.2 µM

Data request: Same read-out for "COc1ccc(Nc2ncnc(Nc3cc(OC)c(OC)c(OC)c3)n2)cc1O" ?
Data returned: > 11.3 µM

Others:
Data request: Find IC50 (Itk (Homo sapiens, UniProt Q08881)) for the entry "Nc1ncnc(Nc2ccc3c(c2)OCO3)n1"
Data returned: > 19.5 µM

Data request: Same read-out for "COc1cc(Nc2ncnc(-n3ccc4cccnc43)n2)cc(OC)c1OC" ?
Data returned: 1.06 to 6.34 µM

Data request: Same read-out for "Cc1cccc(Nc2ncnc(-n3cccc3)n2)c1C" ?
Data returned: > 17 µM
